Readings of total protein half-life in vivo for the listed sequences
assay: total protein half-life in vivo (active degradation + dilution); higher = more stable protein; details: E. coli NCM3722 delta-smpB; growth: N-lim chemostat; doubling time 6 h
ASSAY ENDPOINT: total protein half-life in vivo (h)

sequence_chain="MIDYEVLRFIWWLLVGVLLIGFAVTDGFDMGVGMLTRFLGRNDTERRIMINSIAPHWDGNQVWLITAGGALFAAWPMVYAAAFSGFYVAMILVLASLFFRPVGFDYRSKIEETRWRNMWDWGIFIGSFVPPLVIGVAFGNLLQGVPFNVDEYLRLYYTGNFFQLLNPFGLLAGVVSVGMIITQGATYLQMRTVGELHLRTRATAQVAALVTLVCFALAGVWVMYGIDGYVVKSTMDHYAASNPLNKEVVREAGAWLVNFNNTPILWAIPALGVVLPLLTILTARMDKAAWAFVFSSLTLACIILTAGIAMFPFVMPSSTMMNASLTMWDATSSQLTLNVMTWVAVVLVPIILLYTAWCYWKMFGRITKEDIERNTHSLY [P0ABK2]" assay_endpoint="total protein half-life in vivo" numeric_value=5.4
sequence_chain="MTTKRKPYVRPMTSTWWKKLPFYRFYMLREGTAVPAVWFSIELIFGLFALKNGPEAWAGFVDFLQNPVIVIINLITLAAALLHTKTWFELAPKAANIIVKDEKMGPEPIIKSLWAVTVVATIVILFVALYW [P0A8Q0]" assay_endpoint="total protein half-life in vivo" numeric_value=6.13
sequence_chain=MRKLTALFVASTLALGAANLAHAADTTTAAPADAKPMMHHKGKFGPHQDMMFKDLNLTDAQKQQIREIMKGQRDQMKRPPLEERRAMHDIIASDTFDKVKAEAQIAKMEEQRKANMLAHMETQNKIYNILTPEQKKQFNANFEKRLTERPAAKGKMPATAE assay_endpoint="total protein half-life in vivo" numeric_value=4.4
sequence_chain=MKKLILIAIMASGLVACAQSTAPQEDSRLKEAYSACINTAQGSPEKIEACQSVLNVLKKEKQHQQFADQESVRVLDYQQCLRATQTGNDQAVKADCDKVWQEIRSNNK assay_endpoint="total protein half-life in vivo" numeric_value=5.85
